Molecular target: hG-IIA sPLA2 (Homo sapiens)
Sequence (P14555 21-144): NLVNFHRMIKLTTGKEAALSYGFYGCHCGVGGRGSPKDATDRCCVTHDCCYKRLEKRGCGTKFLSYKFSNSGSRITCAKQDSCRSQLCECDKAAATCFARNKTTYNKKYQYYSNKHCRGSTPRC
Experiment: Inhibition of sPLA2 activity, colorimetric lecithin/red phenol assay, group IIA
Format: biochemical
Details: ± standard deviation, duplicate; read-out: IC50 (µM) Against Phospholipase hG-IIA
RESULT_TYPE: IC50 (µM)

[1] O=c1[nH]c2ccccc2nc1N/N=C/c1ccc(O)cc1O [Compound 3c]
[2] O=c1[nH]c2ccccc2n2c(-c3ccc(O)cc3O)nnc12 [Compound 4c]
[3] COc1cc(-c2nnc3c(=O)[nH]c4ccccc4n23)cc(OC)c1OC [Compound 4a]
Arrange the 3 compounds from largest to smallest IC50. Quick reminder: the answer is the labels in the order asked.
3, 1, 2
